# measured_target: GST-SNAP25 197 (UniProt P60880)
# Sequence (P60880 1-197 limits assumed): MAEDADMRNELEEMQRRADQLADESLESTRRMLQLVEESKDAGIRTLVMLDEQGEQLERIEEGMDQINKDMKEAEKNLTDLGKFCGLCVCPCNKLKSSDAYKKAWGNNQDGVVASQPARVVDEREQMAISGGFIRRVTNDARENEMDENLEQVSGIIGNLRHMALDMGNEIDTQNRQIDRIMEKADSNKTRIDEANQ
A450 with SNAP25 197 values, listed per item
metric_name: A450 with SNAP25 197

binder	metric_name	readout_value
C24 (antibody, V domains shown) VH: EVKLVESGGGLVQPKGSLKLSCAASGYTFNTYAMNWVRQAPGKGLEWVARIRSKSNNYTTYYADSVKDRFTISRDDSQSMLYLQINNLKTEDTAMYYCVGQILYYYVGSPAWFAYWGQGTLVTVSA VL: DIVMTQSPASLAVSLGQRATISCRASKSVSTSGYSYMHWYQQKPGQPPKLLIFLASNLESGVPARFSGSGSGTDFTLNIHPVEEEDAATYYCQHSRELPWTFGGGTKLEIK	A450 with SNAP25 197	0.973
B4 (antibody, V domains shown) VH: EVKLVESGGGLVKPGGSLKLSCAASGFTFSNYGMSWVRQTPEKRLEWVATISSGGSYTYYPDSVKGRFTISRDNAKNTLYLQMSSLRSEDTAMYYCARHEGGGNPYFDYWGQGTTLTVSS VL: DVLMTQTPLSLPVSLGDQASISCRSSQSLVHSNGNTYLHWYLQKPGQSPKLLIYKVSNRFSGVPDRFSGSGSGTDFTLKISRVEAEDLGVYFCSQNTLVPWTFGGGTKLEIK	A450 with SNAP25 197	1.8
C14 (antibody, V domains shown) VH: EVKLVESGGGLVQPKGSLKLSCAASGFTFNTNAMNWVRQAPGKGLEWVARIRSKSDNYATYYADSVKDRFTISRDDSPSMLYLQMNNLKTEDTAMYYCVYGRSYGGLGYWGQGTLVTVSA VL: DIVLTQSPASLAVSLGQRATISCRASKSVSTSGYSYVHWYQQKPGQPPKLLIYLASNLESGVPARFSGSGSGTDFTLNIHPVEEEDAATYYCQHSRELPLTFGAGTKLELK	A450 with SNAP25 197	0.953
